- Test system: B16F0 murine melanoma cell line
- protocol-summary: cells
- Type: cell-based
- setup-conditions: 10 µM, B16F0, 48 h
Below: a set of entries, each annotated with reported % Of melanogenesis inhibition at a specific inhibitor concentration.
Give the value, in units of %, as a plain number.

[[record]]
smi = "NC(=S)N/N=C/c1ccc(C(=O)N[C@@H](Cc2ccccc2)C(=O)N[C@@H](Cc2c[nH]c3ccccc23)C(=O)N[C@@H](Cc2ccc(O)cc2)C(=O)O)cc1"
measured_number = 0

[[record]]
smi = "C/C(=N\\NC(N)=S)c1ccc(C(=O)N[C@@H](Cc2ccccc2)C(=O)N[C@@H](Cc2ccccc2)C(=O)N[C@@H](Cc2ccc(O)cc2)C(=O)O)cc1"
measured_number = 0


Return % Of melanogenesis inhibition at a specific inhibitor concentration (reported value) for this compound: NC(=S)N/N=C/c1ccc(C(=O)N[C@@H](Cc2ccccc2)C(=O)N[C@@H](Cc2ccccc2)C(=O)N[C@@H](Cc2ccc(O)cc2)C(=O)O)cc1
1
